Source: the nanobody polyreactivity screen of Harvey et al. (2022)

assay: yeast display, Sf9 membrane polyspecificity reagent, FACS + sequencing; frameworks hold sequencing errors
assay.endpoint: polyreactivity (PSR sort gate)

Consider the reported polyreactivity (PSR sort gate) for these sequences:
query.sequence	polyreactivity (PSR sort gate)
QVQLVESGGGLVQAGGSLRLSCAASGSTFYFIAMGWFRQAPGKEWELVAVIDGSGGFTYYADSVKGRFTISRDNAKNTVYLQMNSLKPEDTAVYYCAADKTQSHYDDWGQGTQVTVTS	high polyreactivity
QVQLVESGGGIVQAGGSLRLSCAASGSTFGSYAMGWYRQAPGKVRELVAAIYRAGSTYADSVKGRFTISRDNAKYTVYFQMNSLKPEDTAVYYCAKRDNALYYGYDYWRQGTQVTVSS	low polyreactivity
QVQLVESGGGLVQEGGSLRLSCASSGGIFDTNAKGWYRQARGKDREFVAAITGSGGSTYYADSVKGRFTISRDNAKNTVYLQMNSLIPEDTAVYYCAAPLSYYWVYIVRDGYDYWGQGTQVTVSS	low polyreactivity
QVQLVESGGGLVQAGGSLRLSCAASGLTFPFYVMGWYRQAPGKERELVAAISASGASTYYADSVKGRFTISRDNAKNTVYLQMNSLKPEDTAVYYCAALGYGFSYRYDYWGQGTQVTVSS	high polyreactivity
QVQLVESGGGLVQAGGSLRLSCAASGLTFYGNARGWYRQAPGKERELVADISLSGGRTFYADSVKGRFTISRDNAKHTVYLQMNSLKPEDTAVYYCANTYTSGYHRRYDYWGQGTQVTVSS	low polyreactivity

Q. Form field: reported polyreactivity (PSR sort gate) of QVQLVESGGGLVQAGGSLRLSCAASGSTFGRNAMGWYRQAPGKERELVAAITASGGTTYYADSVKGRFTISRDNAKNTVYLQMNSLKPEDTAVYYCARAGHFSFKDDYWGQGTQVTVSS
A. low polyreactivity

Q. What do you have for QVQLVESGGGLVQAGGSLRLSCAASGFTFRNYAMGWYRQAPGKERELVAAISKSGGSTYYADSVKGRFTISRDNAKNTVYFQMNSLKPEDSAVYYCATVYLYVYGFEYYYWGQGTQVTLSS ?
A. high polyreactivity

Q. Then this sequence: QVQLVESGGGLVQAGGSLRLSCAASGRIFSRYAMGWYRQAPGTERELVAAINKSGGSTYYADSVKGRFTISRDNAKNTVYLQMNSLKPEDTAVYYCNAVYYWYKGDYWGQGTQVTVSS
A. high polyreactivity
